These data points were gathered from patent US12227488B2.

Molecular target: IKZF1 (Homo sapiens)
Construct: expressed in transfected cells; host or cells: Flp-In 293
Sequence (Q13422 83-213 isoform Q13422-7 limits assumed): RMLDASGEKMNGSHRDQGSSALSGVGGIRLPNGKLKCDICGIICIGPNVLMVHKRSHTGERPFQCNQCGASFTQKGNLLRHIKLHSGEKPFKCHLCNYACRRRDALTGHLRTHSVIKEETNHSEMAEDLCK
Sequence (Q96SW2 whole entry partner): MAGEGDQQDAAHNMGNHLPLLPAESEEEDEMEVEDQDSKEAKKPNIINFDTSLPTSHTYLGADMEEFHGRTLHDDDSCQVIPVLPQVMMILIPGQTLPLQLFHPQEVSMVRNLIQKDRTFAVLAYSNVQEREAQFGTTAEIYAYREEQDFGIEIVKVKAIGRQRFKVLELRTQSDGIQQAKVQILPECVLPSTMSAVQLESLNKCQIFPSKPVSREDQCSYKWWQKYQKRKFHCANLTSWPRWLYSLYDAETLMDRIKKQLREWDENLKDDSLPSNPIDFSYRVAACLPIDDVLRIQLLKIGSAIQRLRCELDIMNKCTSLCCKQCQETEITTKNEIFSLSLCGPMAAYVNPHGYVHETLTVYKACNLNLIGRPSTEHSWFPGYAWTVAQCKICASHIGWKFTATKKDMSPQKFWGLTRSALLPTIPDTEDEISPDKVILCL
Sequence (Q16531 2-1140 partner limits assumed): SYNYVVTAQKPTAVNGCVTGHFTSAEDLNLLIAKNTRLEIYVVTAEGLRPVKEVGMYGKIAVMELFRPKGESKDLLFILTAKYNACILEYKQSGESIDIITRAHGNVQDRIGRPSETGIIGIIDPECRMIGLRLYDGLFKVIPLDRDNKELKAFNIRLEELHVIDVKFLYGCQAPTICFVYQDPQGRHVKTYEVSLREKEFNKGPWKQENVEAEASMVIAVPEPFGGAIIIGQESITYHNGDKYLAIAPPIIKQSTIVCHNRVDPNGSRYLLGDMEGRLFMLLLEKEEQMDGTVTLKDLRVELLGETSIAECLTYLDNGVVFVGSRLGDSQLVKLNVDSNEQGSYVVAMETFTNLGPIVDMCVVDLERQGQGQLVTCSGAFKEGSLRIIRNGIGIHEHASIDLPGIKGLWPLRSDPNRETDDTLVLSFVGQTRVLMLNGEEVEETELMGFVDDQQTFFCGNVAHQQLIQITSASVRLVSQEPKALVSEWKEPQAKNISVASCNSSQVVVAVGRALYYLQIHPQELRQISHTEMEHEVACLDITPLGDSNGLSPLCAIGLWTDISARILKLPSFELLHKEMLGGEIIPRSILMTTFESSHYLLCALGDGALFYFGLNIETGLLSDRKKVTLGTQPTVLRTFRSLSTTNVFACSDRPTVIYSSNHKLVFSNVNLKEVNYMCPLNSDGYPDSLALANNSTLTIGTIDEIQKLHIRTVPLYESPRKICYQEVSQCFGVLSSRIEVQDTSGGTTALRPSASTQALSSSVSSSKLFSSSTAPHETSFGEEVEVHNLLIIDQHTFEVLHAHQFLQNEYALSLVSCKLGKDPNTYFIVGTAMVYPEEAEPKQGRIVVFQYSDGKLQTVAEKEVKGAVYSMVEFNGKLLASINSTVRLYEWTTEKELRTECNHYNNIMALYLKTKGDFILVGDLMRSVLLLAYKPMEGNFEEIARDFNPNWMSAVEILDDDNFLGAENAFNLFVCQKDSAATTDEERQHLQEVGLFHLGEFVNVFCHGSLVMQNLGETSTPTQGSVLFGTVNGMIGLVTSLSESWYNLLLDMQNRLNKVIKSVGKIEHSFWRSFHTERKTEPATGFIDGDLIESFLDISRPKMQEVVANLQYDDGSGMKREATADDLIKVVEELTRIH
Assay: Cellular degradation assay, eGFP-IKZF1Δ fusion with mCherry reporter in Flp-In 293 cells
Format: cell-based
Conditions: compound concentration 2.00E−06; 5 h incubation; n=1
Note to self: IKZF1 GFP/RFP Relative Abundance under 0.2 means Fulfilled, ties and anything higher get Not fulfilled.

[
  {
    "Molecule": "Cc1ccc(NC(=O)Nc2cccc(NC3=CC(=O)N(C4CCC(=O)NC4=O)C3=O)c2)cc1C (centres unmarked) [Compound 55]",
    "Study target": "IKZF1 (Homo sapiens)",
    "Class name": "Not fulfilled"
  },
  {
    "Molecule": "Cc1ccc(NC(=O)Nc2cccc(NC3=CC(=O)N(C4CCC(=O)NC4=O)C3=O)c2)cc1Cl (centres unmarked) [Compound 43]",
    "Study target": "IKZF1 (Homo sapiens)",
    "Class name": "Not fulfilled"
  },
  {
    "Molecule": "Cc1ccc(CNC(=O)c2cccc(NC3=CC(=O)N(C4CCC(=O)NC4=O)C3=O)c2)cc1Cl (centres unmarked) [Compound 122]",
    "Study target": "IKZF1 (Homo sapiens)",
    "Class name": "Fulfilled"
  },
  {
    "Molecule": "CCOC(=O)CN(C)C1=CC(=O)N(C2CCC(=O)NC2=O)C1=O (centres unmarked) [Compound 17]",
    "Study target": "IKZF1 (Homo sapiens)",
    "Class name": "Not fulfilled"
  },
  {
    "Molecule": "O=C1CCC(N2C(=O)C=C(Nc3nccs3)C2=O)C(=O)N1 (centres unmarked) [Compound 19]",
    "Study target": "IKZF1 (Homo sapiens)",
    "Class name": "Not fulfilled"
  }
]

====

Target: SALL4 ZNF1-2 (Homo sapiens, UniProt Q96SW2+Q9UJQ4)
Construct: IKZF1Δ, IKZF2Δ, GSPT1 and SALL4 ZnF1-2 were subcloned; expressed in transfected cells; host or cells: Flp-In 293
Sequence (Q9UJQ4 378-438 limits assumed): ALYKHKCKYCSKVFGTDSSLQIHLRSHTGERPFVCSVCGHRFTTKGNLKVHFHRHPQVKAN
Sequence (Q96SW2 whole entry): as the sequence (Q96SW2 whole entry partner) above
Sequence (Q16531 whole entry partner): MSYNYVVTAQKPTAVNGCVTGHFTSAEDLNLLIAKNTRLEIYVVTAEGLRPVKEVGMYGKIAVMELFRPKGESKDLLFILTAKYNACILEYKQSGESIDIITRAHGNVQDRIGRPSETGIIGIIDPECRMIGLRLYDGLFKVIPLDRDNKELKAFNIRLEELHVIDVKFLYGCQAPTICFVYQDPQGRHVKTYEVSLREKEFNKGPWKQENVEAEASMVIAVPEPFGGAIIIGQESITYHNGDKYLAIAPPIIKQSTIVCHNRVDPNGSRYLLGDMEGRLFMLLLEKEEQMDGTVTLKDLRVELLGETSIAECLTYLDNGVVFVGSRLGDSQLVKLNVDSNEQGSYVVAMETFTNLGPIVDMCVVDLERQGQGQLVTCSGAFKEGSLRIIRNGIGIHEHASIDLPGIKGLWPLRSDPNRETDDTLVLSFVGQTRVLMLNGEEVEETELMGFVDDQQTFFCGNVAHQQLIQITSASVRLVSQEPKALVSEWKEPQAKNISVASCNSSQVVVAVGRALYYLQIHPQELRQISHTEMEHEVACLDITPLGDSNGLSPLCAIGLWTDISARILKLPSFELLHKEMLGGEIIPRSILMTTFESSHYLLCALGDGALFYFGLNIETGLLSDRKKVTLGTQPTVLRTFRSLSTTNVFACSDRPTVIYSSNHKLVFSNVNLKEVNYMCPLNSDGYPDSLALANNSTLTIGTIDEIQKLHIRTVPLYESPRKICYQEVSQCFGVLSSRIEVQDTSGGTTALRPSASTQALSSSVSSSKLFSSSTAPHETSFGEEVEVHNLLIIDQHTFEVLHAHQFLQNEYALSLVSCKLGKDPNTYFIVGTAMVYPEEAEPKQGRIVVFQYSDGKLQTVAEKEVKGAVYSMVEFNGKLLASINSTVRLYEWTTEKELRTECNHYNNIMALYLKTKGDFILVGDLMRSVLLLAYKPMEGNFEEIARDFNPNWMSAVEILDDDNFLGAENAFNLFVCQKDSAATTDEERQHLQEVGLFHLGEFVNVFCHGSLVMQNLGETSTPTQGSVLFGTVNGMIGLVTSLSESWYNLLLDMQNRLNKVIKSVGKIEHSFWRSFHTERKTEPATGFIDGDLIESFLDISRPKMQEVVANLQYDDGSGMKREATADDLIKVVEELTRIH
Test: Cellular degradation assay, eGFP-SALL4 ZnF1-2 fusion with mCherry reporter in Flp-In 293 cells
Format: cell-based
Conditions: compound concentration 2.00E−05; 5 h incubation; n=1
# SALL4 ZNF1-2 GFP/RFP Relative Abundance per entry
Readout label: SALL4 ZNF1-2 GFP/RFP Relative Abundance

[
  {
    "Compound": "Cc1ccc(NC(=O)NCCNC2=CC(=O)N(C3CCC(=O)NC3=O)C2=O)cc1Cl (stereo not drawn) [Compound 41]",
    "Recorded result": 1.020
  },
  {
    "Compound": "O=C1CCC(N2C(=O)C=C(Nc3cnc4ccccc4c3)C2=O)C(=O)N1 (stereo not drawn) [Compound 27]",
    "Recorded result": 1.026
  },
  {
    "Compound": "Cc1ccc(NC(=O)NCc2ccc3c(c2)CN(C2CCC(=O)NC2=O)C3=O)cc1Cl (stereo not drawn) [CC-885, reference compound]",
    "Recorded result": 1.000
  },
  {
    "Compound": "CCOC(=O)CNC1=CC(=O)N(C2CCC(=O)NC2=O)C1=O (stereo not drawn) [Compound 16]",
    "Recorded result": 1.001
  },
  {
    "Compound": "CN(C)C(=O)Cc1ccc(NC2=CC(=O)N(C3CCC(=O)NC3=O)C2=O)cc1 (stereo not drawn) [Compound 36]",
    "Recorded result": 1.000
  },
  {
    "Compound": "Cc1ccc(NC2=CC(=O)N(C3CCC(=O)NC3=O)C2=O)cc1C#N (stereo not drawn) [Compound 5]",
    "Recorded result": 1.008
  },
  {
    "Compound": "O=C1CCC(N2C(=O)C=C(Nc3ccc(-c4ccccc4)cc3)C2=O)C(=O)N1 (stereo not drawn) [Compound 38]",
    "Recorded result": 1.005
  },
  {
    "Compound": "O=C1CCC(N2C(=O)C=C(Nc3nccs3)C2=O)C(=O)N1 (stereo not drawn) [Compound 19]",
    "Recorded result": 1.010
  },
  {
    "Compound": "O=C1CCC(N2C(=O)C=C(Nc3ccc4cn[nH]c4c3)C2=O)C(=O)N1 (stereo not drawn) [Compound 32]",
    "Recorded result": 1.008
  }
]

====

Biological target: IKZF1 (Homo sapiens)
Construct: expressed in transfected cells; host or cells: Flp-In 293
Test: Cellular degradation assay, eGFP-IKZF1Δ fusion with mCherry reporter in Flp-In 293 cells
Format: cell-based
Conditions: compound concentration 2.00E−06; 5 h incubation; n=1
# IKZF1 GFP/RFP Relative Abundance per entry

[
  {
    "Compound": "CCOC(=O)c1cccc(NC2=CC(=O)N(C3CCC(=O)NC3=O)C2=O)c1 (stereo not shown)",
    "IKZF1 GFP/RFP Relative Abundance": 0.437
  },
  {
    "Compound": "Cc1ccc(NC(=O)NC(C)c2cccc(NC3=CC(=O)N(C4CCC(=O)NC4=O)C3=O)c2)cc1Cl (stereo not shown)",
    "IKZF1 GFP/RFP Relative Abundance": 0.106
  },
  {
    "Compound": "O=C1CCC(N2C(=O)C=C(Nc3ccc(Cc4ccccc4)cc3)C2=O)C(=O)N1 (stereo not shown)",
    "IKZF1 GFP/RFP Relative Abundance": 0.691
  },
  {
    "Compound": "CN(C)C(=O)Cc1cccc(NC2=CC(=O)N(C3CCC(=O)NC3=O)C2=O)c1 (stereo not shown)",
    "IKZF1 GFP/RFP Relative Abundance": 0.181
  },
  {
    "Compound": "O=C1CCC(N2C(=O)C=C(Nc3ccc(-c4ccccc4)cc3)C2=O)C(=O)N1 (stereo not shown)",
    "IKZF1 GFP/RFP Relative Abundance": 0.663
  },
  {
    "Compound": "O=C(O)CCCNC1=CC(=O)N(C2CCC(=O)NC2=O)C1=O (stereo not shown)",
    "IKZF1 GFP/RFP Relative Abundance": 0.975
  },
  {
    "Compound": "Cc1ccc(NC(=O)NCc2cccc(NC3=CC(=O)N(C4CCC(=O)NC4=O)C3=O)c2)cc1C (stereo not shown)",
    "IKZF1 GFP/RFP Relative Abundance": 0.070
  },
  {
    "Compound": "Cc1ccc(NC(=O)NCc2ccc(NC3=CC(=O)N(C4CCC(=O)NC4=O)C3=O)cc2)cc1Cl (stereo not shown)",
    "IKZF1 GFP/RFP Relative Abundance": 0.087
  },
  {
    "Compound": "Cc1ccc(NC(=O)c2cccc(NC3=CC(=O)N(C4CCC(=O)NC4=O)C3=O)c2)cc1Cl (stereo not shown)",
    "IKZF1 GFP/RFP Relative Abundance": 0.187
  },
  {
    "Compound": "CN(C)C(=O)c1cccc(NC2=CC(=O)N(C3CCC(=O)NC3=O)C2=O)c1 (stereo not shown)",
    "IKZF1 GFP/RFP Relative Abundance": 0.413
  }
]

====

Target: IKZF1 (Homo sapiens)
Construct: expressed in transfected cells; host or cells: Flp-In 293
Assay: Cellular degradation assay, eGFP-IKZF1Δ fusion with mCherry reporter in Flp-In 293 cells
Format: cell-based
Details: compound concentration 2.00E−05; 5 h incubation; n=1
# IKZF1 GFP/RFP Relative Abundance per entry
Readout label: IKZF1 GFP/RFP Relative Abundance

[
  {
    "Compound": "Cc1ccc(NC(=O)NCCCNC2=CC(=O)N(C3CCC(=O)NC3=O)C2=O)cc1Cl (stereo not drawn)",
    "Recorded result": 0.312
  },
  {
    "Compound": "O=C1CCC(N2C(=O)C=C(Nc3cccc(Cl)c3)C2=O)C(=O)N1 (stereo not drawn)",
    "Recorded result": 0.290
  },
  {
    "Compound": "CCOC(=O)c1cccc(NC2=CC(=O)N(C3CCC(=O)NC3=O)C2=O)c1 (stereo not drawn)",
    "Recorded result": 0.388
  }
]

====

Molecular target: CRBN and Helios (IKZF2) (Homo sapiens, UniProt Q96SW2+Q9UKS7)
Construct: His (N); Strep (N)
Sequence (Q9UKS7 whole entry, one chain of several): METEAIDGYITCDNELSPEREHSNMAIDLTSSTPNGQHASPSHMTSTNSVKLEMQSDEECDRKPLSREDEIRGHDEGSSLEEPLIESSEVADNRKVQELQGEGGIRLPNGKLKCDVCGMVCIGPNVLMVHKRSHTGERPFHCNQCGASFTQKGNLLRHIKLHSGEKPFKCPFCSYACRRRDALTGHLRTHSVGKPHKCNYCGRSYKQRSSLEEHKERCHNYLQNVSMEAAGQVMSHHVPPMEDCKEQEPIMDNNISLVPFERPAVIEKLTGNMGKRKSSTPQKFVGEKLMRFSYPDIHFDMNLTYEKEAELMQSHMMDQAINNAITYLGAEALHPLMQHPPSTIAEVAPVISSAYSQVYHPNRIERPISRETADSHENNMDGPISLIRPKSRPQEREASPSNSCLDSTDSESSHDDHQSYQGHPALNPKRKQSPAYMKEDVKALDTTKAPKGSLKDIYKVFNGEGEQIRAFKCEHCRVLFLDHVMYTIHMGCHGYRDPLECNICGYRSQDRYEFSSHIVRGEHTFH
Assay: TR-FRET dimerization assay (CRBN-IKZF2 ternary complex formation)
Type: binding
Settings: compound concentration 6.6667E−05; n=1

[
  {
    "Compound": "O=C1CCC(N2C(=O)C=C(Nc3nccs3)C2=O)C(=O)N1 (stereo not shown)",
    "TR-FRET-IKZF2 (Normalized to CC-885)": 0.217
  },
  {
    "Compound": "Cc1ccc(NC(=O)Nc2cccc(NC3=CC(=O)N(C4CCC(=O)NC4=O)C3=O)c2)cc1Cl (stereo not shown)",
    "TR-FRET-IKZF2 (Normalized to CC-885)": 0.443
  },
  {
    "Compound": "O=C1CCC(N2C(=O)C=C(Nc3cccc(CNC(=O)Nc4ccc(Cl)c(Cl)c4)c3)C2=O)C(=O)N1 (stereo not shown)",
    "TR-FRET-IKZF2 (Normalized to CC-885)": 1.224
  },
  {
    "Compound": "CN(C)C(=O)Cc1ccc(NC2=CC(=O)N(C3CCC(=O)NC3=O)C2=O)cc1 (stereo not shown)",
    "TR-FRET-IKZF2 (Normalized to CC-885)": 0.183
  },
  {
    "Compound": "CCOC(=O)c1cccc(NC2=CC(=O)N(C3CCC(=O)NC3=O)C2=O)c1 (stereo not shown)",
    "TR-FRET-IKZF2 (Normalized to CC-885)": 0.386
  },
  {
    "Compound": "O=C1CCC(N2C(=O)C=C(Nc3cccc(CCC(=O)Nc4ccc(C(F)(F)F)c(Cl)c4)c3)C2=O)C(=O)N1 (stereo not shown)",
    "TR-FRET-IKZF2 (Normalized to CC-885)": 1.626
  },
  {
    "Compound": "Cc1ccc(N(C)C(=O)CCc2cccc(NC3=CC(=O)N(C4CCC(=O)NC4=O)C3=O)c2)cc1Cl (stereo not shown)",
    "TR-FRET-IKZF2 (Normalized to CC-885)": 1.390
  },
  {
    "Compound": "O=C1CCC(N2C(=O)C=C(Nc3ccc(Cl)cc3)C2=O)C(=O)N1 (stereo not shown)",
    "TR-FRET-IKZF2 (Normalized to CC-885)": 0.339
  },
  {
    "Compound": "Cc1ccc(NC(=O)NCc2cc(NC3=CC(=O)N(C4CCC(=O)NC4=O)C3=O)ccc2OC(=O)N(C)C)cc1Cl (stereo not shown)",
    "TR-FRET-IKZF2 (Normalized to CC-885)": 0.124
  },
  {
    "Compound": "O=C1CCC(N2C(=O)C=C(Nc3cccc(NC(=O)Nc4ccc(Cl)c(Cl)c4)c3)C2=O)C(=O)N1 (stereo not shown)",
    "TR-FRET-IKZF2 (Normalized to CC-885)": 0.383
  }
]
